- Tested on: DU145 prostate tumor cells
- Measurement Description: Proliferation assay, CellTiter-Glo
- Assay type: cell-based
- Particulars: Homo sapiens, DU-145, 96 h, Cell-glo, day 4
Endpoint: pIC50
# reply with the number alone; pIC50 is -log10 of concentration in mol/L

pIC50 reported for this compound COc1cc(Nc2c(C#N)cnc3cc(OCCCN4CCN(C)CC4)c(OC)cc23)c(Cl)cc1Cl : 5.80

---

- Subject Of Test: PKA (Bos taurus, UniProt P00517)
- Construct: purchased Upstate 14-114
- Measurement Description: PKA Scintiplate kinase assay
- Format: biochemical
Endpoint: IC50 (µM)
Write it as a number; the unit µM goes unstated.

Bench note, PKA (Bos taurus, UniProt P00517): COc1cc(Nc2c(C#N)cnc3cc(OCCCN4CCN(C)CC4)c(OC)cc23)c(Cl)cc1Cl , IC50 reads 5.03

---

- System: RPMI-7951 melanoma cells
- Measurement Description: Proliferation assay, SRB
- Type: cell-based
- Particulars: Homo sapiens, RPMI-7951, 96 h, day 4
Endpoint: IC50 (nM)
Write it as a number; the unit nM goes unstated.

IC50 reported for this compound COc1cc(Nc2c(C#N)cnc3cc(OCCCN4CCN(C)CC4)c(OC)cc23)c(Cl)cc1Cl : 1200

---

- System: A375 melanoma cells
- Measurement Description: Proliferation assay, CellTiter-Glo
- Assay type: cell-based
- Particulars: Homo sapiens, A-375, 96 h, Cell-glo, day 4
Endpoint: IC50

IC50 reported for this compound COc1cc(Nc2c(C#N)cnc3cc(OCCCN4CCN(C)CC4)c(OC)cc23)c(Cl)cc1Cl : 1.2 µM

---

- Test system: HN5 head and neck tumor cells
- Measurement Description: Proliferation assay, CellTiter-Glo
- Type: cell-based
- Particulars: 96 h, Cell-glo, day 4
- Procedure: For the experiments described in Table 3, 1000 cells were plated in each well of a 96 well cell culture dish on day 0 in the standard growth medium for that particular cell line. Compound was added on day 1. Relative cell number was determined on day 4. […]
Endpoint: pIC50
# reply with the number alone; pIC50 is -log10 of concentration in mol/L

pIC50 reported for this compound COc1cc(Nc2c(C#N)cnc3cc(OCCCN4CCN(C)CC4)c(OC)cc23)c(Cl)cc1Cl : 6.52

---

- System: LnCap prostate tumor cells
- Measurement Description: Proliferation assay, CellTiter-Glo
- Assay type: cell-based
- Particulars: Homo sapiens, 96 h, Cell-glo, day 4
- Method: For the experiments described in Table 3, 1000 cells were plated in each well of a 96 well cell culture dish on day 0 in the standard growth medium for that particular cell line. Compound was added on day 1. Relative cell number was determined on day 4. […]
Endpoint: pIC50
# reply with the number alone; pIC50 is -log10 of concentration in mol/L

pIC50 reported for this molecule COc1cc(Nc2c(C#N)cnc3cc(OCCCN4CCN(C)CC4)c(OC)cc23)c(Cl)cc1Cl : 5.46

These data points were gathered from patent US20070010527A1.
